The following molecules are shown together with reported IC50 values.
Biological target: human TRPV4 (Homo sapiens, UniProt Q9HBA0)
Construct: host or cells: tetracycline-inducible Flp-In T-REx 293 cells
Sequence (Q9HBA0 whole entry): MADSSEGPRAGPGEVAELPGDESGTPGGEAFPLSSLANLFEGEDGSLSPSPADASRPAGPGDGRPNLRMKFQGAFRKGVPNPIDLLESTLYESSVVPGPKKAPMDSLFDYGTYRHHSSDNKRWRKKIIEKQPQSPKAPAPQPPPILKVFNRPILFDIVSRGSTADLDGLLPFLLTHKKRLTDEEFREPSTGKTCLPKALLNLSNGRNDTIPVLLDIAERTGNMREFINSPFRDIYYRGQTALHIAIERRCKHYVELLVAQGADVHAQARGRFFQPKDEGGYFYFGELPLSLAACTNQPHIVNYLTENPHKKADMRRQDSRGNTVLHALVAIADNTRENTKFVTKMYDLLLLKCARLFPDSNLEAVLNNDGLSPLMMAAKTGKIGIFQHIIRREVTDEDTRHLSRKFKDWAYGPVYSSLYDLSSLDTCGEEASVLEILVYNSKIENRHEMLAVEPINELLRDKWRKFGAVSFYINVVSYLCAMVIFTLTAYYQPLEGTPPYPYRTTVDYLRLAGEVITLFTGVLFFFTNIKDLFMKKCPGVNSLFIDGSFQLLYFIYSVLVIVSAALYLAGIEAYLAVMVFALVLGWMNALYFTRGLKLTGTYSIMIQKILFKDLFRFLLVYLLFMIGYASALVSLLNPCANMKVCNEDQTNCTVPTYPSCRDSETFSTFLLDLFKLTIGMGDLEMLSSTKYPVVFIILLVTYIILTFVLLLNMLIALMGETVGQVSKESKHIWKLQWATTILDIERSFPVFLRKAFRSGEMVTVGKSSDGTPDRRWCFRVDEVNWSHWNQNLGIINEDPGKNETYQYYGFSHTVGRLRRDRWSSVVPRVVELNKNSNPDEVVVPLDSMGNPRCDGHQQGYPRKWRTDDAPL
Test: Hypotonicity-induced Ca2+ influx (Fluo-4, FDSS)
Assay type: cell-based
Conditions: Flp-In T-REx 293 cells stably expressing human TRPV4, compounds listed by potency bin (<10 nM Tables 96-1/96-2, <3 nM Table 97)
Experimental: Hypotonicity-Induced Ca^2+ Influx TRPV4 channel activation/opening results in an influx of Ca^2+ (Liedtke, W. et al., 2000 (NPL 1)). The resulting changes in intracellular calcium are monitored using a Ca^2+ sensitive fluorescent dye Fluo-4 (Invitrogen). Dye loaded cells are treated with the test compounds for 5 minutes prior to the addition of a hypotonic solution and the inhibition of the hypotonicity-induced activation is recorded. […]

O=C([C@H](O)c1cccc(-c2ccnc(C(F)(F)F)c2)c1)N1CCCc2nc(C3(c4cccc(Cl)c4)CC3)[nH]c(=O)c2C1	< 3 nM

# IC50 lookup, item `O=C([C@H](O)c1cccc(-c2cccc(OC(F)(F)F)c2)c1)N1CCCc2nc(C3(c4cccc(C5CCCCC5)c4)CC3)[nH]c(=O)c2C1` < 10 nM

What do you get for `O=C([C@H](O)c1cccc(Cl)c1)N1CCCc2nc(C3(c4cccc(-c5coc6ccccc56)c4)CC3)[nH]c(=O)c2C1` ? < 3 nM

What do you get for `N#Cc1ccc(-c2cccc(CC(=O)N3CCCc4nc(C5(c6cccc(Cl)c6)CC5)[nH]c(=O)c4C3)c2)cc1` ? < 10 nM

What do you get for `O=C(CCc1ccccc1)N1CCC(c2cccc(C3(c4nc5c(c(=O)[nH]4)CN(C(=O)[C@H](O)c4cccc(C(F)(F)F)c4)CCC5)CC3)c2)CC1` ? < 3 nM

----------
target: human TRPV4 (Homo sapiens); construct: host or cells: tetracycline-inducible Flp-In T-REx 293 cells; assay: Hypotonicity-induced Ca2+ influx (Fluo-4, FDSS); format: cell-based; details: Flp-In T-REx 293 cells stably expressing human TRPV4, compounds listed by potency bin (<10 nM Tables 96-1/96-2, <3 nM Table 97)
The following compounds are shown together with reported IC50 values.

O=C([C@H](O)c1cccc(Cl)c1)N1CCCc2nc(C3(c4cc(C5CCCCC5)cs4)CC3)[nH]c(=O)c2C1 [18-22]	< 3 nM
O=C([C@H](O)c1cccc(C(F)(F)F)c1)N1CCc2nc(C3(c4cccc(C5CCCC5)c4)CC3)[nH]c(=O)c2C1 [27-2]	< 10 nM
CN(C)S(=O)(=O)c1ccc(-c2cccc(C3(c4nc5c(c(=O)[nH]4)CN(C(=O)[C@H](O)c4cccc(C(F)(F)F)c4)CCC5)CC3)c2)cc1 [42-18]	< 10 nM

Next:
# IC50 lookup, item O=C([C@H](O)c1cccc(Cl)c1)N1CCCc2nc(C3(c4cccc(C5CCC(F)(F)CC5)c4)CC3)[nH]c(=O)c2C1 [29-4] < 3 nM

----------
The following compounds are shown together with reported pIC50 values.
target: human TRPV4 (Homo sapiens, UniProt Q9HBA0); construct: host or cells: tetracycline-inducible Flp-In T-REx 293 cells; assay: Hypotonicity-induced Ca2+ influx (Fluo-4, FDSS); format: cell-based; settings: Flp-In T-REx 293 cells stably expressing human TRPV4, compounds listed by potency bin (<10 nM Tables 96-1/96-2, <3 nM Table 97)
pIC50: −log10 of the molar value.

O=C(C(O)c1cccc(-c2cccc(C(F)(F)F)c2)c1)N1CCc2nc(C3(c4cccc(Cl)c4)CC3)[nH]c(=O)c2C1 (centres unmarked)	> 8.00
CC(C)c1csc(C2(c3nc4c(c(=O)[nH]3)CN(C(=O)C(O)c3cccc(S(F)(F)(F)(F)F)c3)CCC4)CC2)c1 (centres unmarked)	> 8.00
O=C([C@H](O)c1cccc(C(F)(F)F)c1)N1CCCc2nc(C3(c4cc(C5CCOCC5)cs4)CC3)[nH]c(=O)c2C1	> 8.00
CC(C)c1cncc(C2(c3nc4c(c(=O)[nH]3)CN(C(=O)[C@H](O)c3cccc(-c5ccc(OC(F)(F)F)cc5)c3)CC4)CC2)c1	> 8.00
O=C([C@H](O)c1cccc(-c2cccc(OC(F)(F)F)c2)c1)N1CCCc2nc(C3(c4cncc(-c5ccccc5)c4)CC3)[nH]c(=O)c2C1	> 8.00

# pIC50 lookup, item `CC(C)c1cncc(C2(c3nc4c(c(=O)[nH]3)CN(C(=O)C(F)(F)c3cccc(C(F)(F)F)c3)CCC4)CC2)c1` > 8.52

What do you get for O=C(C(O)c1cccc(-c2cccc(C(F)(F)F)c2)c1)N1CCc2nc(C3(c4cccc(F)c4)CC3)[nH]c(=O)c2C1 (centres unmarked) ? > 8.00

What do you get for `CC(C)c1csc(C2(c3nc4c(c(=O)[nH]3)CN(C(=O)[C@H](O)c3cccc(-c5cccc(Cl)c5)c3)CCC4)CC2)c1` ? > 8.00

What do you get for CC(C)(C)c1cccc(-c2cccc(C(O)C(=O)N3CCCc4nc(C5(c6cncc(-c7ccccc7)c6)CC5)[nH]c(=O)c4C3)c2)c1 (centres unmarked) ? > 8.52

What do you get for O=C(C(O)c1cccc(S(F)(F)(F)(F)F)c1)N1CCCc2nc(C3(c4cccs4)CC3)[nH]c(=O)c2C1 (centres unmarked) ? > 8.00

What do you get for `O=C(Cc1cccc(SC(F)(F)F)c1)N1CCCc2nc(C3(c4ccccc4)CC3)[nH]c(=O)c2C1` ? > 8.00
